Biological target: NK3 (Homo sapiens)
Sequence (P29371 whole entry): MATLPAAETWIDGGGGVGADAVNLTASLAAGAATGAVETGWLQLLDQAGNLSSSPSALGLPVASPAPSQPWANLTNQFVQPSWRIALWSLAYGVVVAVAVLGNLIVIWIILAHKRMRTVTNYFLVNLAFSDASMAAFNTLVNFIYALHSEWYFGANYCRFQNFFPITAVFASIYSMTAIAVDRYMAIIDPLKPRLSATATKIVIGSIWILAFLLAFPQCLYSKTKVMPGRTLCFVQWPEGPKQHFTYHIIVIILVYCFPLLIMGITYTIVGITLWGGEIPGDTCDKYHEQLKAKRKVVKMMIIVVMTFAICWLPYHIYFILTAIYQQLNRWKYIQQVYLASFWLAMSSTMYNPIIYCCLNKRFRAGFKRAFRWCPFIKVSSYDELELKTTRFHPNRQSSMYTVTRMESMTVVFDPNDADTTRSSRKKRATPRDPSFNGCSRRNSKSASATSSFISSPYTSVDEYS
Test: Signal transduction (ST), intracellular Ca++ (FLIPR), NK3
Format: cell-based
Settings: read-out: pIC50 NK3 (converted)
Observable: IC50 (nM)

CC(C)(C)OCC(=O)N1CCC(N2CCN([C@H]3CCN(C(=O)c4cc(C(F)(F)F)cc(C(F)(F)F)c4)[C@H](Cc4ccccc4)C3)CC2)C1 (stereo partly drawn) | 794

a: O=C(C1CCCCC1)N1CCC(N2CCN(C3CCN(C(=O)c4cc(C(F)(F)F)cc(C(F)(F)F)c4)C(Cc4ccc(F)c(F)c4)C3)CC2)C1 (single isomer, unassigned) [Compound 357]
b: CN(C(=O)OC(C)(C)C)C(C)(C)C(=O)N1CCC(N2CCN(C3CCN(C(=O)c4cc(C(F)(F)F)cc(C(F)(F)F)c4)C(Cc4ccccc4)C3)CC2)C1 (stereo not drawn)
Q: Name the one with the greater IC50 value, either a or b as given. Your choice should be expressed through its label.
A: a

1: O=C(c1ccccc1Cl)N1CCC(N2CCN([C@@H]3CCN(C(=O)c4cc(C(F)(F)F)cc(C(F)(F)F)c4)[C@H](Cc4ccc(Cl)c(Cl)c4)C3)CC2)C1 (relative stereo)
2: O=C(C1CCCCN1C(=O)C1CC1)N1CCC(N2CCN([C@H]3CCN(C(=O)c4cc(C(F)(F)F)cc(C(F)(F)F)c4)[C@H](Cc4ccccc4)C3)CC2)C1 (stereo partly drawn)
Q: When the recorded IC50 values are compared, which is smaller: that of 1 or that of 2 ? Your answer should be the label attached to the chosen record.
A: 2

1: O=C(c1cccc(O)c1)N1CCC(N2CCN([C@H]3CCN(C(=O)c4cc(C(F)(F)F)cc(C(F)(F)F)c4)[C@H](Cc4ccccc4)C3)CC2)C1 (stereo partly drawn)
2: O=C(C(=O)N1CCC(N2CCN([C@H]3CCN(C(=O)c4cc(C(F)(F)F)cc(C(F)(F)F)c4)[C@H](Cc4ccccc4)C3)CC2)C1)c1cccs1 (stereo partly drawn)
Q: Which has the smaller recorded IC50, 1 or 2 ? Answer format: the label of the selected item.
A: 2
